Can you tell me inhibition for the items I'm about to list?
- experimental-target: G protein-coupled receptor kinase 6 (Homo sapiens)
- condition-description: at 1 µM
State the answer as a number, implicitly in %.

Q. // lookup inhibition | system=G protein-coupled receptor kinase 6 (Homo sapiens) | key= COc1ccc(-c2ccc3c(NC(=O)C4CC4)n[nH]c3n2)cc1;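 note: values are averaged percent inhibition of GRK6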
A. 9.55

Q. Next record, please: O=C1NC(=O)C(c2cccc(Cl)c2)=C1Nc1ccc(Cl)c(C(=O)O)c1
A. 8.66

Q. How about COc1ccc(C2=C(N3CCc4ccccc43)C(=O)NC2=O)cc1 ?
A. 8.49

Q. How about CN(c1ccc(NC(=O)Nc2c(Cl)cccc2Cl)cc1)c1ccnc(Nc2cccc(CS(C)(=O)=O)c2)n1 ?
A. 3.8

Q. Could you do the same for NC(=O)c1cc(-c2ccc(F)cc2)cc(-c2ccncc2)c1N , please?
A. 6.88

Q. Then O=C1Nc2ccccc2/C1=C/Nc1ccc(-n2cncn2)cc1 ?
A. 14.8

Q. Cool, now COc1cc2ncn(-c3cc(OCc4cccs4)c(C(N)=O)s3)c2cc1OC
A. 17.9

Q. Try the compound COc1cccc(/C=N/Nc2ncnc3c2cnn3-c2cccc(OC)c2)c1
A. 4.38

Q. CN(C)CCOc1ccc(-c2cc(-c3ccc4c(c3)CCC4=NO)c(-c3ccncc3)o2)cc1 ?
A. -0.1

Q. // query: NC(=O)c1ccc(Oc2nccc(-c3c(-c4ccc(F)cc4)ncn3C3CCNCC3)n2)cc1
A. 7.44
